Reference source for all entries: PubChem BioAssay AID1851

Target: Cytochrome P450 3A4 (Homo sapiens)
Assay: Cytochrome panel assay with activity outcomes
Settings: recombinant CYP, pro-luciferin dealkylation, luminescence, p450-cyp3a4; series mostly up to 57.1 µM
Description: The P450 gene superfamily is involved in the metabolism and clearance of xenobiotics. This assay used various human CYP P450 isozymes to measure the dealkylation of various pro-luciferin substrates to luciferin. The luciferin is then measured by luminescence after the addition of a luciferase detection reagent. […] Inhibitors and some substrates limit the production of luciferin, and decrease measured luminescence. […] 8, Detection, 1 sec, ViewLux luminescent read […]
Hit rate of the full screen: of about 16,000 compounds, about 5,100 (32%) were called active. Another 25% or so got no clear call; they are omitted. Calls follow the shape of the dose curve; as a rule, active = well fitted curve in the direction sought with a large enough effect; inconclusive = small, poorly fitted or top-dose-only effect, or effect the other way; inactive = no such curve, though single readings can be large or run the other way. This is one part of the list.
# output must be one of 1.0 for active, 0.0 for inactive

Below are worked cases with known answers.
SMILES_STR: Fc1ccc(C(OCCCc2cnc[nH]2)c2ccc(F)cc2)cc1
LABEL: 1.0
--
SMILES_STR: O=C(Oc1ccccc1)N1CCC2(CCCN(c3ncccn3)C2)CC1
LABEL: 0.0
--
SMILES_STR: Cn1nc(C(F)(F)F)c(/C=N/OC(=O)c2ccc(Cl)cc2)c1Cl
LABEL: 0.0
--
SMILES_STR: CC(=O)N1CCC2(CC1)CN(c1ccccn1)C2
LABEL: 0.0
--
SMILES_STR: Cc1cc(C)n(-c2nc(Nc3ccccc3C)nc(-n3nc(C)cc3C)n2)n1
LABEL: 1.0
--
SMILES_STR: CC(=O)N1CCC2(CC1)CCN(c1ccc(-c3ccccc3)cc1)CC2
LABEL: 0.0

Record lookup: outcome of this test for O=C(Oc1ccccc1)N1CCC2(CCCN(c3ccc(-c4ccccc4)cc3)C2)CC1 ? 1.0

Record lookup: outcome of this test for c1ccc(-c2ccc(N3CC[C@@]4(CCCNC4)C3)cc2)cc1 ? 0.0

Record lookup: outcome of this test for CS(=O)(=O)N1CCC2(CC1)CN(c1ccc(-c3ccccc3)cc1)C2 ? 0.0

Record lookup: outcome of this test for CN(C)c1ncc2nc(-c3cccs3)c(=O)n(-c3ccccc3)c2n1 ? 0.0

Record lookup: outcome of this test for Cc1cc(C)n(-c2nc(NC(C)(C)C)nc(NC(C)(C)C)n2)n1 ? 0.0
